Assay: Solubility of NAVI in COA ionic liquid
Type: physicochemical
Conditions: choline octanoate (COA) ionic liquid, aqueous with cosolvent or surfactant or cyclodextrin; with COA; read-out: solubility of NAVI increased by COA
From the text: Skin melanoma remains one of the fastest-growing and the most common types of cancer in the United States and worldwide. Although primary melanoma can be removed by surgery if detected, advanced metastatic melanoma cannot be managed by surgery alone and thus an alternative and effective therapeutic approach is required. Direct local application of anti-cancer drugs may effectively treat topical cancerous skin lesions when surgery is not feasible. […]

>  <chem smiles>
CC1(C)CCC(c2ccc(Cl)cc2)=C(CN2CCN(c3ccc(C(=O)NS(=O)(=O)c4ccc(N[C@H](CCN5CCOCC5)CSc5ccccc5)c(S(=O)(=O)C(F)(F)F)c4)cc3)CC2)C1

>  <solubility>
≤ 150 µg/mL

$$$$

Data provenance: patent US20230165806A1
